Molecular target: Mm_Fpr2 (Mus musculus)
Construct: expressed in transfected cells
Sequence (O88536 whole entry): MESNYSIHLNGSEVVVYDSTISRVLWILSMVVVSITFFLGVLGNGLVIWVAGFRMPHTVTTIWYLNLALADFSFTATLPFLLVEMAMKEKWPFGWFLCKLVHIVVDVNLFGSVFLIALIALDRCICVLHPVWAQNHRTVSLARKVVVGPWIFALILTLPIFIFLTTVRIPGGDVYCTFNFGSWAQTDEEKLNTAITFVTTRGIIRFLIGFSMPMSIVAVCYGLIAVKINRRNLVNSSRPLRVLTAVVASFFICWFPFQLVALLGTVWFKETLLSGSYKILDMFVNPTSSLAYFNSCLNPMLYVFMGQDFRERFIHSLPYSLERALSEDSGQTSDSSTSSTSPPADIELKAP
Assay: BRET receptor-RLuc8 interaction with Arrestin 3-YFP
Format: cell-based
Where a SMILES comes first, the peptide text is derived from it. The star is where a group is joined. Palmitoyl = CCCCCCCCCCCCCCCC(=O)*; For = O=C*
The compounds listed here are annotated with their EC50.

COMPOUND	EC50 (µM)
CCCCCCCCCCCCCCCC(=O)N[C@@H](CCCCN)C(=O)N[C@H](C(=O)N[C@@H](Cc1c[nH]cn1)C(=O)N[C@@H](CCCCN)C(=O)N[C@@H](CCCCN)C(=O)NCC(=O)N[C@@H](CCSC)C(=O)N[C@H](C(=O)N[C@@H](CCCCN)C(=O)N[C@@H](CO)C(=O)O)[C@@H](C)CC)[C@@H](C)CC [F2Pal10] (Palmitoyl-KIHKKGMIKS-OH)	0.263
CSCC[C@H](NC=O)C(=O)N[C@@H](CC(C)C)C(=O)N[C@@H](Cc1ccccc1)C(=O)N[C@@H](CCCCN)C(=O)O [fMLFK, fMet-Leu-Phe-Lys] (For-MLFK-OH)	16.2
COc1cc(F)c([C@@H]2CNC(=O)[C@H]2NC(=O)Nc2ccccc2)c(F)c1 [BMS-986235]	0.151
CSCC[C@H](NC=O)C(=O)N[C@@H](CC(C)C)C(=O)N[C@@H](Cc1ccccc1)C(=O)O [fMLF, fMet-Leu-Phe]	19.5

====

Target: Hs_FPR2 (Homo sapiens, UniProt P25090)
Construct: expressed in transfected cells
Sequence (P25090 whole entry): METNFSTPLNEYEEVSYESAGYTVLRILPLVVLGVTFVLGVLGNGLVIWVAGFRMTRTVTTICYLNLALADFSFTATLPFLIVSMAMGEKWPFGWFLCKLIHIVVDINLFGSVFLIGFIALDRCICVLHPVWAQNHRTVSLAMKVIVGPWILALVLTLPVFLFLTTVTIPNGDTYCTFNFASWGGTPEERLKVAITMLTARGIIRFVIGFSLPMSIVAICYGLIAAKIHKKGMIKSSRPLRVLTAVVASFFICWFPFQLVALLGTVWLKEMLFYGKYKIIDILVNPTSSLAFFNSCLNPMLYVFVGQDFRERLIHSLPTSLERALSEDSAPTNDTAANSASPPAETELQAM
Assay: BRET receptor-RLuc8 interaction with Arrestin 3-YFP
Assay type: cell-based
Where a SMILES comes first, the peptide text is derived from it. The star is where a group is joined. For = O=C*

COMPOUND	Emax
CSCC[C@H](NC(=O)[C@@H](NC(=O)[C@H](CCSC)NC(=O)[C@H](Cc1ccc(O)cc1)NC(=O)[C@H](CCCCN)NC(=O)[C@@H](N)Cc1c[nH]c2ccccc12)C(C)C)C(N)=O	94.8%
CSCC[C@H](NC(=O)[C@H](Cc1ccc(O)cc1)NC(=O)[C@H](CCCCN)NC(=O)[C@@H](N)Cc1c[nH]c2ccccc12)C(=O)N[C@H](C(=O)N[C@H](CCSC)C(N)=O)C(C)C	102%
CC[C@H](C)[C@H](NC(=O)[C@H](CC(C)C)NC(=O)[C@H](CCCCN)NC(=O)[C@H](CCSC)NC(=O)[C@H](CC(C)C)NC(=O)[C@@H]1CCCN1C(=O)[C@H](CC(N)=O)NC(=O)[C@@H](NC(=O)[C@H](CCCCN)NC(=O)[C@H](CCCNC(=N)N)NC(=O)[C@H](CCSC)NC(=O)[C@@H]1CCCN1C(=O)[C@@H](NC(=O)[C@H](CCSC)NC=O)[C@@H](C)O)[C@@H](C)CC)C(=O)N[C@@H](CC(N)=O)C(=O)O [MCT-2, Formyl-MTPMRKINPLMKLIN] (For-MTPMRKINPLMKLIN-OH)	51.8%

====

The molecules listed here are annotated with their Emax.
Biological target: Mm_Fpr2 (Mus musculus)
Construct: expressed in transfected cells
Assay: Internalization of FLAG-tagged receptors by flow cytometry
Assay type: cell-based
Parameters: dose or concentration left out as unconfirmed
Where a SMILES comes first, the peptide text is derived from it. The star is where a group is joined. Palmitoyl = CCCCCCCCCCCCCCCC(=O)*; For = O=C*
READOUT KIND: Emax (%)

MOLECULE	TARGET	MEASURED NUMBER
CSCC[C@H](NC=O)C(=O)N[C@@H](CC(C)C)C(=O)N[C@@H](Cc1ccccc1)C(=O)O	Mm_Fpr2 (Mus musculus)	54.4
CSCC[C@H](NC(=O)[C@H](Cc1ccc(O)cc1)NC(=O)[C@H](CCCCN)NC(=O)[C@@H](N)Cc1c[nH]c2ccccc12)C(=O)N[C@H](C(=O)N[C@H](CCSC)C(N)=O)C(C)C	Mm_Fpr2 (Mus musculus)	102
CSCC[C@H](NC=O)C(=O)N[C@@H](CC(C)C)C(=O)N[C@@H](Cc1ccccc1)C(=O)N[C@@H](CCCCN)C(=O)O [fMLFK, fMet-Leu-Phe-Lys] (For-MLFK-OH)	Mm_Fpr2 (Mus musculus)	81.6
CC[C@H](C)[C@H](NC(=O)[C@H](CC(C)C)NC(=O)[C@H](CCCCN)NC(=O)[C@H](CCSC)NC(=O)[C@H](CC(C)C)NC(=O)[C@@H]1CCCN1C(=O)[C@H](CC(N)=O)NC(=O)[C@@H](NC(=O)[C@H](CCCCN)NC(=O)[C@H](CCCNC(=N)N)NC(=O)[C@H](CCSC)NC(=O)[C@@H]1CCCN1C(=O)[C@@H](NC(=O)[C@H](CCSC)NC=O)[C@@H](C)O)[C@@H](C)CC)C(=O)N[C@@H](CC(N)=O)C(=O)O [MCT-2, Formyl-MTPMRKINPLMKLIN] (For-MTPMRKINPLMKLIN-OH)	Mm_Fpr2 (Mus musculus)	43.9
CCCCCCCCCCCCCCCC(=O)N[C@@H](CCCCN)C(=O)N[C@H](C(=O)N[C@@H](Cc1c[nH]cn1)C(=O)N[C@@H](CCCCN)C(=O)N[C@@H](CCCCN)C(=O)NCC(=O)N[C@@H](CCSC)C(=O)N[C@H](C(=O)N[C@@H](CCCCN)C(=O)N[C@@H](CO)C(=O)O)[C@@H](C)CC)[C@@H](C)CC [F2Pal10] (Palmitoyl-KIHKKGMIKS-OH)	Mm_Fpr2 (Mus musculus)	12.3
COc1cc(F)c([C@@H]2CNC(=O)[C@H]2NC(=O)Nc2ccccc2)c(F)c1	Mm_Fpr2 (Mus musculus)	88
